Consider the following compounds; for each one, report its pIC50.
target: mouse TRPM3a2 (mTRPM3) ion channel (Mus musculus, UniProt J9SQF3); construct: expressed in transfected cells; host or cells: flip-in HEK293; test: TRPM3 ion channel driven Ca2+ uptake, Fluo-4 AM assay (PS-stimulated, overexpressing flip-in HEK293 cells); assay type: cell-based; conditions: PS (50 μM) stimulated Ca2+ influx, HEK293, cpds 300-399
Sequence (J9SQF3 1-1709 isoform J9SQF3-12): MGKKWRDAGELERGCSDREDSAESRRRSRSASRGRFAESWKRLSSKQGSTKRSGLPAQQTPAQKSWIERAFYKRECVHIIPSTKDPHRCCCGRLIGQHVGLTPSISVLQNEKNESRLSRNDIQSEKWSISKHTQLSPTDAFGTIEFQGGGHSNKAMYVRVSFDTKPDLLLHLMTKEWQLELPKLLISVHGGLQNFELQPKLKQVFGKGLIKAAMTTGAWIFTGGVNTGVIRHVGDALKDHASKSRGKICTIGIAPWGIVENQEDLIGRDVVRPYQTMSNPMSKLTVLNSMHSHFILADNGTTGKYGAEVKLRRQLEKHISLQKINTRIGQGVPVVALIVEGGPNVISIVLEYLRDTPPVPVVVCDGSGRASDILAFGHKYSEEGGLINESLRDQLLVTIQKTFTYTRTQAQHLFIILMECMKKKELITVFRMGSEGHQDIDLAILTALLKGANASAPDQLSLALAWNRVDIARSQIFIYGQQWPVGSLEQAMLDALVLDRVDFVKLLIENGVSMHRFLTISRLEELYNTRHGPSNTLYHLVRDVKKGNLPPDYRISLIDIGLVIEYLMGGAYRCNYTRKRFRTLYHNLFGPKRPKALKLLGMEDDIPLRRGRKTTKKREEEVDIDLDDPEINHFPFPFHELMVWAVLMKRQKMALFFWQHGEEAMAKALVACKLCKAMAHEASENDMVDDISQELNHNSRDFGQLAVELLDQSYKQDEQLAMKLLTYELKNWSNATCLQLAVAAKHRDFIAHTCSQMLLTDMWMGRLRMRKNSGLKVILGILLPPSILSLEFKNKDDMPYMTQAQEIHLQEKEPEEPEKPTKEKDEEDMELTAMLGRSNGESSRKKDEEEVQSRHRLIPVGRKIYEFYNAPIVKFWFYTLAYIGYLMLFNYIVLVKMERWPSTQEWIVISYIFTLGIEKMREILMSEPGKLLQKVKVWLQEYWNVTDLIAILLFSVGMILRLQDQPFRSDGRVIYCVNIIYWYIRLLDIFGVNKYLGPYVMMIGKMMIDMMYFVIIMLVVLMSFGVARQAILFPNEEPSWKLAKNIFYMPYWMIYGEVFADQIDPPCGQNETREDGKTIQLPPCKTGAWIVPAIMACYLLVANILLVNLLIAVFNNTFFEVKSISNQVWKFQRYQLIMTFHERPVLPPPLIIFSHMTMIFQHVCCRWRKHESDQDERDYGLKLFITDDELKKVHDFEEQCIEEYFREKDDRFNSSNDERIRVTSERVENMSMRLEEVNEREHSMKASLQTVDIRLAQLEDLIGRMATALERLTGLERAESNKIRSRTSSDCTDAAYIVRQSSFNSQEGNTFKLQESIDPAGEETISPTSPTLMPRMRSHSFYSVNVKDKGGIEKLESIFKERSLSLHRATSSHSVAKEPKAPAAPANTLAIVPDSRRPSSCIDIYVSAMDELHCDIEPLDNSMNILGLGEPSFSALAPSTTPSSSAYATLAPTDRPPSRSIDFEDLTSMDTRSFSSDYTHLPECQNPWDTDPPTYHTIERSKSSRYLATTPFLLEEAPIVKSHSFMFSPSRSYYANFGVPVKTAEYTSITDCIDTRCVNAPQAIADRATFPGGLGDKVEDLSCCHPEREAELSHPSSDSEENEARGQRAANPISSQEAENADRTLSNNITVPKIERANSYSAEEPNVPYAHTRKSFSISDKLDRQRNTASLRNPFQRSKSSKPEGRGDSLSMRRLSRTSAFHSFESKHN
pIC50: −log10 of the molar value.

These solved cases illustrate the format of a correct answer.
Cc1ncsc1COc1cc(F)c2oc(C)c(C(=O)NC3CCN(CCO)C3=O)c2c1 (single isomer, unassigned) [365 - En 1] = ≤ 4.70
Cc1ncc(COc2ccc3oc(C)c(C(=O)NC4COCC4O)c3c2)s1 (single isomer, unassigned) [388 - En 1] = ≥ 6.00
Cc1ncc(COc2ccc3oc(C)c(C(=O)N[C@@H](CO)C(=O)N4CCCC4)c3c2)s1 [cpd 307] = 4.70 to 6.00
COc1ncccc1COc1ccc2oc(C(F)F)c(C(=O)NC3(CO)CCOCC3)c2c1 [cpd 312] = 4.70 to 6.00
Cc1ncsc1COc1ccc2oc(C)c(C(=O)NC(C)C(=O)N(C)CCO)c2c1 (single isomer, unassigned) [396 - En 1] = ≥ 6.00

Please report pIC50 for every entry that follows.
1. Cc1oc2ccc(OCc3c(F)cnn3C)cc2c1C(=O)NC1(CO)CCCNC1=O (single isomer, unassigned) [355 - En 1]
2. CCOc1ncccc1COc1ccc2oc(C)c(C(=O)NC3CCN(CCO)C3=O)c2c1 (single isomer, unassigned) [348 - En 1]
3. Cc1oc2c(F)cc(OCc3cccnc3O)cc2c1C(=O)NC1(CO)CCOCC1 [cpd 368]

Output line:
≥ 6.00
≥ 6.00
4.70 to 6.00

Please report pIC50 for every entry that follows.
1. Cc1ncsc1COc1cc(F)c2oc(C)c(C(=O)NC3(CO)CC3)c2c1 [cpd 366]
2. Cc1oc2ccc(OCc3nccn3CC(F)F)cc2c1C(=O)NC1(CO)CCOCC1 [cpd 331]
3. Cc1oc2ccc(OCc3ccnn3CC(F)F)cc2c1C(=O)N[C@H](C(N)=O)[C@@H](C)O [cpd 381]
4. Cc1oc2ccc(OCc3ccccn3)cc2c1C(=O)NC1COCC1O (single isomer, unassigned) [387 - En 1]
5. Cc1ncsc1COc1ccc2oc(C)c(C(=O)NC3CCN(CCO)C3=O)c2c1F (single isomer, unassigned) [326 - En 2]
6. Cc1oc2ccc(OCc3cccnc3O)c(F)c2c1C(=O)NC1(CO)CCOCC1 [compound 329]

Output line:
1: 4.70 to 6.00; 2: 4.70 to 6.00; 3: ≥ 6.00; 4: ≥ 6.00; 5: 4.70 to 6.00; 6: 4.70 to 6.00

Please report pIC50 for every entry that follows.
1. Cc1oc2ccc(OCc3ncccc3C(F)F)cc2c1C(=O)NC1(CO)CCOCC1 [cpd 351]
2. Cc1ncsc1COc1ccc2oc(C(F)F)c(C(=O)NC3(CO)CC3)c2c1 [cpd 308]
3. Cc1ncsc1COc1ccc2oc(C)c(C(=O)NC(C)C(=O)NCCO)c2c1 (single isomer, unassigned) [397 - En 1]

Output line:
["4.70 to 6.00", "4.70 to 6.00", "≥ 6.00"]

Reference source for all entries: patent US20240336602A1
